test system: trypomastigote of T. cruzi Dm28; assay: Trypanocidal activity (MTT) on trypomastigotes; format: cell-based; settings: Trypanosoma cruzi, 100 µM, 24 h, n.a = not active, read-out: % T. cruzi Trypomastigote (trypanocidal effect)

{"compound": "CCN(CC)c1ccc2cc(/C=C/c3onc(C)c3[N+](=O)[O-])c(=O)oc2c1 [Compound 11]", "killing at 100 µM, %": 10}
{"compound": "Cc1noc(/C=C/c2ccc(O)c(O)c2)c1[N+](=O)[O-] [Compound 8]", "killing at 100 µM, %": 16}
{"compound": "CC1CS(=O)(=O)CCN1/N=C/c1ccc([N+](=O)[O-])o1 (stereo not drawn) [Nfx, nifurtimox, reference compound]", "killing at 100 µM, %": 74}

====

experiment: Cyclic voltammetry (reduction of the nitro group); assay type: physicochemical; design: unit not given here; conditions: cyclic voltammetry at 2.0 V/s
reported.endpoint: |ΔEp|

{"molecule": "Cc1noc(/C=C/N(C)C)c1[N+](=O)[O-] [Compound 1]", "test.value": 140}
{"molecule": "Cc1noc(/C=C/c2ccc(O)c(O)c2)c1[N+](=O)[O-] [Compound 8]", "test.value": 150}
{"molecule": "Cc1ccc(-n2cc(/C=C/c3onc(C)c3[N+](=O)[O-])c3ccccc32)cc1 [Compound 14]", "test.value": 120}
{"molecule": "Cc1noc(/C=C/c2ccco2)c1[N+](=O)[O-] [Compound 10]", "test.value": 100}

====

assay: Cyclic voltammetry (reduction of the nitro group); assay type: physicochemical; design: key: potentials in V vs Ag/AgCl; conditions: cyclic voltammetry at 2.0 V/s, DMSO, 0.1 M TBAP, vs Ag/AgCl
reported.endpoint: −EpcI

{"structure.smiles.string": "Cc1noc(/C=C/c2ccc(Br)cc2)c1[N+](=O)[O-]", "reported.endpoint": "−EpcI", "test.value": 0.81}
{"structure.smiles.string": "Cc1noc(/C=C/c2ccc(O)c(O)c2)c1[N+](=O)[O-]", "reported.endpoint": "−EpcI", "test.value": 0.93}
{"structure.smiles.string": "Cc1ccc(-n2cc(/C=C/c3onc(C)c3[N+](=O)[O-])c3ccccc32)cc1", "reported.endpoint": "−EpcI", "test.value": 0.72}
{"structure.smiles.string": "Cc1noc(/C=C/c2cn(-c3ccc(Cl)cc3)c3ccccc23)c1[N+](=O)[O-]", "reported.endpoint": "−EpcI", "test.value": 0.75}
{"structure.smiles.string": "CCN(CC)c1ccc2cc(/C=C/c3onc(C)c3[N+](=O)[O-])c(=O)oc2c1", "reported.endpoint": "−EpcI", "test.value": 0.79}
{"structure.smiles.string": "Cc1noc(/C=C/c2ccccc2Br)c1[N+](=O)[O-]", "reported.endpoint": "−EpcI", "test.value": 0.80}
{"structure.smiles.string": "Cc1noc(/C=C/c2cccc(Br)c2)c1[N+](=O)[O-]", "reported.endpoint": "−EpcI", "test.value": 0.78}
{"structure.smiles.string": "COc1cc(/C=C/c2onc(C)c2[N+](=O)[O-])ccc1O", "reported.endpoint": "−EpcI", "test.value": 0.66}

====

assay: Cyclic voltammetry (reduction of the nitro group); format: physicochemical; parameters: key: potentials in V vs Ag/AgCl; conditions: cyclic voltammetry at 2.0 V/s, DMSO, 0.1 M TBAP, vs Ag/AgCl
reported.endpoint: −EpaII

{"compound": "Cc1noc(/C=C/c2ccccc2Br)c1[N+](=O)[O-]", "test.value": 0.95}
{"compound": "Cc1noc(/C=C/c2ccccc2)c1[N+](=O)[O-] [Compound 4, (E)-3-Methyl-4-nitro-5-styrylisoxazole]", "test.value": 0.80}
{"compound": "Cc1noc(/C=C/N2CCCCC2)c1[N+](=O)[O-]", "test.value": 1.19}
{"compound": "Cc1noc(/C=C/N2CCCC2)c1[N+](=O)[O-]", "test.value": 1.20}
{"compound": "Cc1noc(/C=C/c2ccc(F)cc2)c1[N+](=O)[O-]", "test.value": 0.71}
{"compound": "COc1cc(/C=C/c2onc(C)c2[N+](=O)[O-])ccc1O", "test.value": 1.07}
{"compound": "Cc1noc(/C=C/N(C)C)c1[N+](=O)[O-]", "test.value": 1.19}
{"compound": "Cc1noc(/C=C/c2ccco2)c1[N+](=O)[O-]", "test.value": 0.74}
{"compound": "Cc1noc(/C=C/c2cn(-c3ccccc3)c3ccccc23)c1[N+](=O)[O-]", "test.value": 0.87}
{"compound": "Cc1ccc(-n2cc(/C=C/c3onc(C)c3[N+](=O)[O-])c3ccccc32)cc1", "test.value": 0.84}
{"compound": "Cc1noc(/C=C/c2cn(-c3ccc(Cl)cc3)c3ccccc23)c1[N+](=O)[O-]", "test.value": 0.90}
{"compound": "Cc1noc(/C=C/c2ccc(O)c(O)c2)c1[N+](=O)[O-]", "test.value": 1.02}
{"compound": "Cc1noc(/C=C/c2ccc([N+](=O)[O-])cc2)c1[N+](=O)[O-]", "test.value": 0.64}

====

assay: ORAC-FL antioxidant capacity; details: relative to Trolox; phosphate buffer 75 mM, pH 7.4, 37 °C

{"molecule": "Cc1noc(/C=C/c2cn(-c3ccc(Cl)cc3)c3ccccc23)c1[N+](=O)[O-]", "ORAC-FL Index": 0.4}
{"molecule": "Cc1noc(/C=C/c2cn(-c3ccccc3)c3ccccc23)c1[N+](=O)[O-]", "ORAC-FL Index": 0.4}
{"molecule": "Cc1noc(/C=C/c2ccccc2)c1[N+](=O)[O-] [Compound 4, (E)-3-Methyl-4-nitro-5-styrylisoxazole]", "ORAC-FL Index": 0.33}
{"molecule": "Cc1noc(/C=C/c2ccc(Br)cc2)c1[N+](=O)[O-]", "ORAC-FL Index": 0.4}
{"molecule": "Cc1noc(/C=C/c2ccco2)c1[N+](=O)[O-]", "ORAC-FL Index": 0.36}
{"molecule": "Cc1noc(/C=C/c2ccc(F)cc2)c1[N+](=O)[O-]", "ORAC-FL Index": 0.74}
{"molecule": "Cc1ccc(-n2cc(/C=C/c3onc(C)c3[N+](=O)[O-])c3ccccc32)cc1", "ORAC-FL Index": 0.4}
{"molecule": "Cc1noc(/C=C/N2CCCC2)c1[N+](=O)[O-]", "ORAC-FL Index": 0.14}
{"molecule": "Cc1noc(/C=C/c2cccc(Br)c2)c1[N+](=O)[O-]", "ORAC-FL Index": 0.54}
{"molecule": "Cc1c(C)c2c(c(C)c1O)CCC(C)(C(=O)O)O2 (stereo not drawn) [Trolox, reference compound]", "ORAC-FL Index": 1.00}
{"molecule": "Cc1noc(/C=C/c2ccccc2Br)c1[N+](=O)[O-]", "ORAC-FL Index": 0.8}
{"molecule": "Cc1noc(/C=C/N2CCCCC2)c1[N+](=O)[O-]", "ORAC-FL Index": 0.52}
{"molecule": "Cc1noc(/C=C/c2ccc([N+](=O)[O-])cc2)c1[N+](=O)[O-]", "ORAC-FL Index": 0.57}
{"molecule": "CCN(CC)c1ccc2cc(/C=C/c3onc(C)c3[N+](=O)[O-])c(=O)oc2c1", "ORAC-FL Index": 0.21}
{"molecule": "COc1cc(/C=C/c2onc(C)c2[N+](=O)[O-])ccc1O", "ORAC-FL Index": 0.7}
{"molecule": "Cc1noc(/C=C/c2ccc(C(F)(F)F)cc2)c1[N+](=O)[O-]", "ORAC-FL Index": 0.8}
{"molecule": "Cc1noc(/C=C/N(C)C)c1[N+](=O)[O-]", "ORAC-FL Index": 0.9}
{"molecule": "Cc1noc(/C=C/c2ccc(O)c(O)c2)c1[N+](=O)[O-]", "ORAC-FL Index": 1.0}

====

Each entry below carries its recorded melting point.
reported.endpoint: melting point

{"molecule": "Cc1noc(/C=C/N2CCCC2)c1[N+](=O)[O-]", "test.value": "145 to 147 °C"}
{"molecule": "Cc1noc(/C=C/c2ccco2)c1[N+](=O)[O-]", "test.value": "145 to 147 °C"}
{"molecule": "Cc1noc(/C=C/c2ccc(O)c(O)c2)c1[N+](=O)[O-]", "test.value": "270 °C (dec.)"}
{"molecule": "Cc1noc(/C=C/N(C)C)c1[N+](=O)[O-]", "test.value": "154 to 156 °C"}
{"molecule": "Cc1noc(/C=C/c2cn(-c3ccc(Cl)cc3)c3ccccc23)c1[N+](=O)[O-]", "test.value": "217 to 220 °C"}
{"molecule": "Cc1noc(/C=C/c2ccccc2Br)c1[N+](=O)[O-]", "test.value": "169 to 172 °C"}
{"molecule": "Cc1ccc(-n2cc(/C=C/c3onc(C)c3[N+](=O)[O-])c3ccccc32)cc1", "test.value": "208 to 211 °C"}
{"molecule": "Cc1noc(/C=C/c2ccccc2)c1[N+](=O)[O-] [Compound 4, (E)-3-Methyl-4-nitro-5-styrylisoxazole]", "test.value": "176 to 178 °C"}
{"molecule": "COc1cc(/C=C/c2onc(C)c2[N+](=O)[O-])ccc1O", "test.value": "189 to 191 °C"}

Numbers sourced from paper PMC11207111.
